Test system: NCI-H522
Protocol: NCI tumour cell line growth inhibition, 48 h
The source made the active and inactive calls. Cut-off read from the data, not from the text of the source: active = GI50 up to about 1.1 µM and inactive = higher. Non-standard residues stand in square brackets, D forms with d. Residues, ends and D or L forms follow the SMILES beside them. ξ: configuration not given here. Pentanoyl(2-O,4-OH,5-Cl) = O=C(O)C(O)CC(O)CCl; Ile(3ξ) = CCC(C)[C@H](N)C(=O)O; NMeV = CN[C@H](C(=O)O)C(C)C; NMeA = CN[C@@H](C)C(=O)O; βAla = NCCC(=O)O
Measurement Name: GI50

1) CCC(C)[C@@H]1NC(=O)[C@@H]2CCCN2C(=O)C(CC(O)CCl)OC(=O)CCNC(=O)[C@H](C)N(C)C(=O)[C@H](C(C)C)N(C)C1=O (stereo not given in full) (cyclo([Ile(3ξ)][NMeV][NMeA][βAla][Pentanoyl(2-O,4-OH,5-Cl)]P)); 2.36 µM (inactive)
2) COc1ccc(Cl)cc1NC(=O)c1cccc([N+](=O)[O-])c1O; 6.49 µM (inactive)
3) O=c1c(-c2ccccc2)c2oc(c1-c1ccccc1)CS(=O)(=O)CCC2; 9.98 µM (inactive)

Q: Any idea what its GI50 is? The compound is `COc1cc(/C=C(\NC(=O)c2ccccc2)c2nc3ccc4c(c3[nH]2)C(=O)c2ccccc2C4=O)cc(OC)c1OC`
A: 7.24 µM (inactive)

Q: Need GI50, item `Cc1ccc(C#CS(=O)(=O)C(F)(F)F)cc1`
A: > 100 µM (inactive)

Q: Query: GI50; subject: COc1ccc2ccccc2c1C1OC(=O)c2ccccc21 (stereo not given)
A: 63.5 µM (inactive)

Q: # get_value(readout='GI50', item= CC1(C)Oc2ccc3c(=O)c4ccccc4oc3c2C1C(=O)O (stereo not given) )
A: > 100 µM (inactive)

Q: Any idea what its GI50 is? The compound is `O=C(c1cc(Br)ccc1O)c1cc(Br)ccc1O`
A: 15 µM (inactive)

Q: Fill blank: measured GI50 of the compound CSc1nc(Br)nc2c1ncn2C1CC(Oc2ccc(C)cc2)C(COc2ccc(C)cc2)O1 (stereo not given) is ____.
A: > 100 µM (inactive)

Q: May I ask what GI50 has been recorded for `COc1ccccc1-n1c(NN)nc2ccc(Br)cc2c1=O` ?
A: 16.9 µM (inactive)

Q: Entry under review: `CCOP(=O)(CN=C(c1ccccc1)c1ccccc1)OCC` . Reported GI50?
A: > 100 µM (inactive)

Q: What value of measured GI50 is listed for `CN(C)c1ccc(C(c2ccc(N(C)C)cc2)c2ccc([N+](=O)[O-])cc2)cc1` ?
A: > 100 µM (inactive)

Q: Fill blank: measured GI50 of the compound `COc1c2c(c3c(c1OC)c(=O)c1ccccc1n3C)OCO2` is ____.
A: > 100 µM (inactive)

Q: Look up GI50 for this compound: `Cc1cccc2nc3cc(O)cc(O)c3c(O)c12`
A: > 10 µM (inactive)

Q: Query: GI50; subject: CC(C)(C)C1=C(Br)C(Br)(C(C)(C)C)OP1(=O)c1ccccc1 (stereo not given)
A: > 100 µM (inactive)

Q: Endpoint output: GI50 of `C#CCN(Cc1ccc2nc(OC)c(OC)nc2c1)c1cc(OC)c(OC)c(OC)c1` . Value?
A: 9.44 µM (inactive)

Q: Would you mind telling me what GI50 value was observed for `O=C1C=C(Nc2ccc(S(=O)(=O)Nc3nccs3)cc2)c2ccccc2C1=O` ?
A: 38.5 µM (inactive)

Reference source for all entries: ChEMBL document CHEMBL1201862
